Tested on: LOX IMVI melanoma
RUN_DESCRIPTION: NCI tumour cell line growth inhibition, 48 h; in the data active = GI50 below about 0.43 µM; inactive = the rest
Choose one outcome from this list and give only that: active, inactive

- COMPOUND: "Cc1nnc(-c2ccc(-c3nc4ccccc4o3)cc2)o1"
  MEASURED_TARGET: "LOX IMVI melanoma"
  GROUP_LABEL: "inactive"
- COMPOUND: "Cn1ccnc1C[N-]Cc1nccn1C.O=[N+]([O-])[O-].O=[N+]([O-])[O-].[Cu+2]"
  MEASURED_TARGET: "LOX IMVI melanoma"
  GROUP_LABEL: "inactive"
- COMPOUND: "O=C1c2ccn(CCCCN3CCC(O)CC3)c2C(=O)c2c1c(O)c1ccccc1c2O"
  MEASURED_TARGET: "LOX IMVI melanoma"
  GROUP_LABEL: "inactive"

Kindly review the next compound as well.
Assay outcome for "COC(=O)[C@]12CC[C@@H](C)[C@H](C)[C@@H]1C1=CC[C@@H]3[C@@]4(C)CC(=O)[C@H](OC(=O)c5ccco5)[C@@]5(C)COC(=C45)C[C@@]3(C)[C@]1(C)CC2" : what was it?
inactive

---

Test system: IGROV1 ovarian
RUN_DESCRIPTION: NCI tumour cell line growth inhibition, 48 h
REPORTED_METRIC: TGI

Okay, here is my list. What is TGI for each of these?
1. Cc1ncc([N+](=O)[O-])n1CCNC(=O)CCCCCn1ccnc1[N+](=O)[O-]
2. Oc1c(CN2CCOCC2)cc(COCc2ccccc2)c2cccnc12
3. CC1=CC(=O)/C(=C/n2c(=S)[nH]c3ccccc32)C(=O)O1
4. CN(C)CCNc1nc2ccccc2c2c(=O)c3ccccc3sc12

1. > 100 µM
2. > 100 µM
3. > 100 µM
4. 4.53 µM

Batch lookup, TGI per entry.
1. N#Cc1c2c(c(-c3cccs3)n(C3OC(CO)C(O)C(O)C3O)c1=S)CCc1ccccc1-2 (centres undefined)
2. COC(=O)C1C2CC3C(OC(=O)C31)C2OC(=O)[C@](OC)(c1ccccc1)C(F)(F)F (some centres undefined)

1: > 100 µM; 2: > 100 µM

Below are 3 compounds. Give each one its TGI.
1. CCC1(O)CC(OC2CC(N(C)C)C(OC3CC(O)C(OC4CCC(=O)C(C)O4)C(C)O3)C(C)O2)c2c(O)c3c(c(O)c2C1C(=O)OC)C(=O)c1cccc(O)c1C3=O (centres undefined)
2. Cc1nnc(-c2ccc(-c3nc4ccccc4o3)cc2)o1
3. O=C(Nc1cc(-c2cccnc2)nc(NCCCN2CCOCC2)n1)c1cc(Br)cc(C(F)(F)F)c1

["0.0281 µM", "> 100 µM", "19.5 µM"]

---

Would you kindly list TGI for each of these molecules?
Test system: A498 renal
RUN_DESCRIPTION: NCI tumour cell line growth inhibition, 48 h

Some solved entries appear below for comparison.
- MOLECULE: "COC(=O)C1C2CC3C(OC(=O)C31)C2OC(=O)[C@](OC)(c1ccccc1)C(F)(F)F (stereo not given in full)"
  TGI: "> 100 µM"
- MOLECULE: "C=CCC(SC)C1=C(C)C(=O)c2ccccc21 (stereo not given)"
  TGI: "> 10 µM"
- MOLECULE: "COc1ccc2[nH]c(O)c(/C=c3/cc4c(c(-c5ccc(F)cc5)n3)=Nc3ccccc3-4)c2c1"
  TGI: "34.3 µM"

Please give TGI, item by item, for the list that follows.
1. CCN(CC)CCNc1ccc2ncn3c4cc(=O)ccc4c(O)c1c23
2. O=C1c2ccccc2-c2c1c1ccccc1c(=O)n2-c1ccccc1

["14 µM", "60.7 µM"]
